# Protocol Details: Kinetic solubility in PBS pH 7.4, HPLC-UV (Example 21, Table 27)
# Type: physicochemical
# Condition: phosphate buffered saline, aqueous buffer, kinetic from dmso stock, 0.5 M PBS, shaken minimum 24 h at approximately 25° C., HPLC-UV 270 nm
Observable: solubility kinetic (µM)

Example compounds with recorded solubility kinetic:
{"columns": ["Compound", "Result Value"],
 "data": [
  ["CCCCCOc1cc(N2CC[C@H](C)N(Cc3cccc4[nH]cc(Cl)c34)C2=O)ccc1OC", 364],
  ["CCCCCOc1cc(N2CC[C@H](C)N(Cc3ccnc4c3c(Cl)cn4CC(=O)N3CCC3)C2=O)ccc1OC", 81],
  ["CCCCCOc1cc(N2CCCN(Cc3ccc(CC(=O)N4CCO[C@@H](CN(C)C)C4)cc3OC)C2=O)ccc1OC (stereo in doubt)", 348],
  ["CCCCCOc1cc(N2CCCN(Cc3cccc4c3ccn4CC(=O)NC3CCNC(=O)C3)C2=O)ccc1OC (stereo not shown)", 200]
]}

a: CCCCCOc1cc(N2CCCN(Cc3ccc(CC(=O)N4CCOC(COC)C4)cc3OC)C2=O)ccc1OC (stereo not shown)
b: CCCCCOc1cc(N2CCCN(Cc3ccnc4c3c(Cl)cn4C(C)C(=O)N3CN(C(C)C)C3)C2=O)ccc1OC (stereo not shown)
Exercise: Quick check, higher solubility kinetic between a and b ? Your answer should be the label of the entry you select.
Key: a

###

Below: a set of entries, each annotated with reported IC50.
# Target: Human C5 (Homo sapiens, UniProt P01031)
# Construct: purchased Complement Technology
# Sequence (P01031 19-1676): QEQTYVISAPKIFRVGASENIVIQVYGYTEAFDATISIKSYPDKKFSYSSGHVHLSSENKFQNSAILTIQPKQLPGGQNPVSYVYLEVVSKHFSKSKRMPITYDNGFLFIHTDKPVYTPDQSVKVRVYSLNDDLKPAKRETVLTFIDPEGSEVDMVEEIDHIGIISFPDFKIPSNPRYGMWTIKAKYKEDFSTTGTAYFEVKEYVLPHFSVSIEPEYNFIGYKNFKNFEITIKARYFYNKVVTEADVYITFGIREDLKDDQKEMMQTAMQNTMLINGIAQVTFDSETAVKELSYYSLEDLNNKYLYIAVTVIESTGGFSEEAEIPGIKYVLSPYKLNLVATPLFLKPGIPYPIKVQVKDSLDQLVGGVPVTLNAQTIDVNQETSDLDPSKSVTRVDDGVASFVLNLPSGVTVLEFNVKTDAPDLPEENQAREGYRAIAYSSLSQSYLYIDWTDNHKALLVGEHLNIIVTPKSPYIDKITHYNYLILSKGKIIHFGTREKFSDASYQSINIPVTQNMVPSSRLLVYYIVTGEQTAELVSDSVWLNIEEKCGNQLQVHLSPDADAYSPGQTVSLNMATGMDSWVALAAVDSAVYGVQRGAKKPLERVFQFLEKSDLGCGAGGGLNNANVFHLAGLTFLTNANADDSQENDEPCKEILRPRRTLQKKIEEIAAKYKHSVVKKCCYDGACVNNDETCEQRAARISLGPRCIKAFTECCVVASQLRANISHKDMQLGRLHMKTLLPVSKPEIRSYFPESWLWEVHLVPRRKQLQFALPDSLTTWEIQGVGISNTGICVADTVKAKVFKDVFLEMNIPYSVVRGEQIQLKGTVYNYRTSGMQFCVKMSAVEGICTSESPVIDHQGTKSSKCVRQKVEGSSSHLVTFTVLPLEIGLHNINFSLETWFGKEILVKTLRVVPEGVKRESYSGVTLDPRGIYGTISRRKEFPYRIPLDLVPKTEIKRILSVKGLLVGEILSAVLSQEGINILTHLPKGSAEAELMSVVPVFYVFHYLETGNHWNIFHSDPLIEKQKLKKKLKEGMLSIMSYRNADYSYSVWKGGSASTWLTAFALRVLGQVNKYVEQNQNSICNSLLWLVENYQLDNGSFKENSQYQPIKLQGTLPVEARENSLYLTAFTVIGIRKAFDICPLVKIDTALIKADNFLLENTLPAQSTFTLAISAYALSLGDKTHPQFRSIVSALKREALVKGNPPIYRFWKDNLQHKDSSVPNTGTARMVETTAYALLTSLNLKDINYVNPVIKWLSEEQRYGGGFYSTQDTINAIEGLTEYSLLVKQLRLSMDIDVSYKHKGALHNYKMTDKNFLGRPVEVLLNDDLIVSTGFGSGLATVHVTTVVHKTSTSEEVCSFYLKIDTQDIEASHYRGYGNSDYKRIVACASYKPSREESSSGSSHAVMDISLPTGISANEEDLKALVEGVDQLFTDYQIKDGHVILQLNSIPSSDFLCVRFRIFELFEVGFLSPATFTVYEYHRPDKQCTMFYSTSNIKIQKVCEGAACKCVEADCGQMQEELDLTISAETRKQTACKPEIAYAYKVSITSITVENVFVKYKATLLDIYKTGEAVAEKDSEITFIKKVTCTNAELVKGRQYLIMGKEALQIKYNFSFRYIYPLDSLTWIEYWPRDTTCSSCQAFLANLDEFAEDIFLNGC
# Protocol Details: Hemolysis assay, luminescent, classical complement pathway (Example 4, Table 7)
# Format: cell-based
# Condition: sheep EA cells, 1.5% C5-depleted human serum, 0.5 nM human C5, luminescence readout
Enter your answer as a number in µM; do not include the unit.

{"columns": ["Compound", "IC50, µM"],
 "data": [
  ["COc1ccc(NC(=O)NCc2ccccc2OC(F)F)cc1OCCCC(C)C", 0.558],
  ["CCCCCOc1cc(NC(=O)N(CC(=O)NCC2CC(=O)N(C)C2)Cc2cc(F)ccc2OC)ccc1OC (stereo not shown)", 0.914],
  ["CCCCCOc1cc(NC(=O)N(CC(=O)NC2CCN(C(C)=O)CC2)Cc2cc(F)ccc2OC)ccc1OC", 1.14]
]}

Let's switch to this compound now.
Exercise: Find IC50 (Human C5 (Homo sapiens, UniProt P01031)) for the entry CCCCCOc1cc(NC(=O)N(CC(=O)NC)Cc2cc(F)ccc2OC)ccc1OC
Key: 0.867

###

# Target: Human C5 (Homo sapiens, UniProt P01031)
# Construct: purchased Complement Technology
# Protocol Details: Surface plasmon resonance (SPR), compounds on immobilized human C5 (Example 2, Table 5)
# Type: binding
# Condition: lowest value where a range of compound concentrations were analyzed
Observable: Kd (µM)

Some compounds with recorded Kd:
{"columns": ["Compound", "Target", "Unit Descriptor", "Result Value"],
 "data": [
  ["COc1ccc(NC(=O)N(C)Cc2ccccc2)cc1OCCCC(C)C [SM0021]", "Human C5 (Homo sapiens, UniProt P01031)", "µM", 0.368],
  ["CC(C)CCCOc1cccc(NC(=O)N[C@@H](CO)c2ccccc2)c1 [SM0070]", "Human C5 (Homo sapiens, UniProt P01031)", "µM", 4.8]
]}

P: COc1ccc(NC(=O)N[C@@H](CO)c2ccccc2)cc1OCc1ccncc1 [SM0098]
Q: COc1ccc(NC(=O)NCc2ccc(S(N)(=O)=O)cc2)cc1OCCCC(C)C [SM0048]
Exercise: Smaller Kd value, P vs Q ? Use the label to indicate which entry you chose.
Key: P
(P: 3.8 µM, Q: 7.2 µM)
